mass density overview
conditions: 298.15 K; 101.33 kPa; Liquid
Numbers only here, please. The scale is kg/m3.

Solved cases below.
Looking up `CCCCCCCCCC` , I found its mass density recorded as 726.357

Looking up `CCCCCCC` , I found its mass density recorded as 679.627

Looking up `CCCCCCCC` , I found its mass density recorded as 698.636

Looking up `CCCCCCCCC` , I found its mass density recorded as 714.064

Attention now turns to another entry.
Looking up `CC(C)CC(C)(C)C` , I found its mass density recorded as 687.757
